As shown below, each of these sequences has a reported self-aminoacylation value.
Tested on: biotinyl-Leu-oxazolone
Assay Notes: self-aminoacylation, catalytic enhancement (BLO) (fold over background); higher = more active; k-Seq, kA / k0A0; sequences stand for … in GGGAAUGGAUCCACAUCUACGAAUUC…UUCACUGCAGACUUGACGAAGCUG
Variants at the floor of the assay were thinned out.

Biosequence: AUUACCCUAGUCAUCGAGUUA [Fam2.1 aminoacylation ribozyme variant]
self-aminoacylation: 0.9

Biosequence: CUAGUUCAAACAGUCGGUCUG [Fam1A.1 aminoacylation ribozyme variant]
self-aminoacylation: 1.12

Biosequence: AAGCUUGCUAAUAGUCGCAAC [Fam3.1 aminoacylation ribozyme variant]
self-aminoacylation: 1.44

Biosequence: ACGUUUGCUAAUAGUCGCGAG [Fam3.1 aminoacylation ribozyme variant]
self-aminoacylation: 2.48

Biosequence: CCACACUGCCAGCAAUCGGUC [Fam1B.1 aminoacylation ribozyme variant]
self-aminoacylation: 1.47

Biosequence: CCAAACUUCAAGCAAUAGGUC [Fam1B.1 aminoacylation ribozyme variant]
self-aminoacylation: 0.527

Biosequence: AUUAGCCUGGUCAUAGAGUGA [Fam2.1 aminoacylation ribozyme variant]
self-aminoacylation: 5.43

Biosequence: CCACACUUCUGGCAAUCGGUC [Fam1B.1 aminoacylation ribozyme variant]
self-aminoacylation: 1.54

Biosequence: AAGUUUGCUAAUAGUCGGAAU [Fam3.1 aminoacylation ribozyme variant]
self-aminoacylation: 1.41

Biosequence: AAGUCUGUUAAUAGUCGCAAG [Fam3.1 aminoacylation ribozyme variant]
self-aminoacylation: 1.01

Biosequence: GCACACUUCAAGCAUUCGGUC [Fam1B.1 aminoacylation ribozyme variant]
self-aminoacylation: 2.17

Biosequence: AUUAUCCUGGUCAUCGGGUGA [Fam2.1 aminoacylation ribozyme variant]
self-aminoacylation: 17.1

Biosequence: AUUGCCCUGGUCAUCGAGAGA [Fam2.1 aminoacylation ribozyme variant]
self-aminoacylation: 1.5

Biosequence: AUACUUCAAACAAUCGGUAUG [Fam1A.1 aminoacylation ribozyme variant]
self-aminoacylation: 0.732

Biosequence: CCACACUUCAAGUAAUCGUUC [Fam1B.1 aminoacylation ribozyme variant]
self-aminoacylation: 0.705

Biosequence: CCACACUACAAGGAAUCGGUC [Fam1B.1 aminoacylation ribozyme variant]
self-aminoacylation: 0.947

Biosequence: AUUACACUGGUCAUUGAGUGA [Fam2.1 aminoacylation ribozyme variant]
self-aminoacylation: 6.76

Biosequence: AUUACCAUAGUCAUCGAGUGA [Fam2.1 aminoacylation ribozyme variant]
self-aminoacylation: 7.53

Biosequence: AUUUAGCUAGGUCAUCGGGUG [Fam2.2 aminoacylation ribozyme variant]
self-aminoacylation: 5.39

Biosequence: CCACAAGUCAAGCAAUCGGUC [Fam1B.1 aminoacylation ribozyme variant]
self-aminoacylation: 1.49

Biosequence: AGUCGCCUAGGUCAUCGGGUG [Fam2.2 aminoacylation ribozyme variant]
self-aminoacylation: 7.99

Biosequence: AAGUUUGCUGAUAGUAGCAAG [Fam3.1 aminoacylation ribozyme variant]
self-aminoacylation: 0.88

Biosequence: AUUACCCCGGUCAUUGAGUGA [Fam2.1 aminoacylation ribozyme variant]
self-aminoacylation: 6.53

Biosequence: CUAUUUCAAACAAUCGGUCUG [Fam1A.1 aminoacylation ribozyme variant]
self-aminoacylation: 0.838

Biosequence: AUUACCCUGGCCAUCGAGUGU [Fam2.1 aminoacylation ribozyme variant]
self-aminoacylation: 2.04

Biosequence: CUACUUCAAACAAACGGACUG [Fam1A.1 aminoacylation ribozyme variant]
self-aminoacylation: 0.546

Biosequence: GGACUUCAAACAAUCGGUCUG [Fam1A.1 aminoacylation ribozyme variant]
self-aminoacylation: 2.75

Biosequence: UUACUUCAAACAAUCGGUGUG [Fam1A.1 aminoacylation ribozyme variant]
self-aminoacylation: 2.36

Biosequence: CCACACUCCAAGGAAUCGGUC [Fam1B.1 aminoacylation ribozyme variant]
self-aminoacylation: 1.08

Biosequence: AAGUUGGCUAAUAGUCGCAAU [Fam3.1 aminoacylation ribozyme variant]
self-aminoacylation: 1.71

Biosequence: AUUCACCUAGGCAAUCGGGUG [Fam2.2 aminoacylation ribozyme variant]
self-aminoacylation: 4.75

Biosequence: AUUACCCUGGUCCUAGAGUGA [Fam2.1 aminoacylation ribozyme variant]
self-aminoacylation: 9.4

Biosequence: AUGACACUGGUCAUCGAGUGA [Fam2.1 aminoacylation ribozyme variant]
self-aminoacylation: 6.42

Biosequence: AUUCACCUAGCUCAUGGGGUG [Fam2.2 aminoacylation ribozyme variant]
self-aminoacylation: 5.64

Biosequence: AUUUCCCUGGUCAUCGAGGGA [Fam2.1 aminoacylation ribozyme variant]
self-aminoacylation: 1.83
